Attribution: the NIST ThermoML archive (doi:10.1016/j.jct.2014.03.022)

Measured viscosity accompanies every entry in the list below.
Conditions: 303.15 K; 101.3 kPa; Liquid; Concentric cylinders viscometry
± gives the expanded uncertainty stated by the source.
METRIC_NAME: viscosity

molecule="CCCCCCCCCCO [decan-1-ol]" observed_result="9.754 ± 0.2 mPa·s"
molecule="CCCCCCCCO [octan-1-ol]" observed_result="6.402 ± 0.13 mPa·s"
molecule="CCCCCCCCCO [nonan-1-ol]" observed_result="7.927 ± 0.18 mPa·s"
molecule="CN(C)C=O [dimethylformamide]" observed_result="0.7678 ± 0.016 mPa·s"

###

Measured viscosity accompanies every entry in the list below.
Details: 313.15 K; 101.3 kPa; Liquid; Concentric cylinders viscometry
± gives the expanded uncertainty stated by the source.
METRIC_NAME: viscosity

compound=CCCCCCCCCO metric_name=viscosity observed_result="5.645 ± 0.13 mPa·s"
compound="CN(C)C=O [dimethylformamide]" metric_name=viscosity observed_result="0.678 ± 0.015 mPa·s"
compound=CCCCCCCCCCO metric_name=viscosity observed_result="6.842 ± 0.14 mPa·s"
compound=CCCCCCCCO metric_name=viscosity observed_result="4.628 ± 0.097 mPa·s"
